Target desc: Rat brain delta opioid receptor (Rattus norvegicus, UniProt P33533)
Construct: from tissue; host or cells: rat brain
Sequence (P33533 whole entry): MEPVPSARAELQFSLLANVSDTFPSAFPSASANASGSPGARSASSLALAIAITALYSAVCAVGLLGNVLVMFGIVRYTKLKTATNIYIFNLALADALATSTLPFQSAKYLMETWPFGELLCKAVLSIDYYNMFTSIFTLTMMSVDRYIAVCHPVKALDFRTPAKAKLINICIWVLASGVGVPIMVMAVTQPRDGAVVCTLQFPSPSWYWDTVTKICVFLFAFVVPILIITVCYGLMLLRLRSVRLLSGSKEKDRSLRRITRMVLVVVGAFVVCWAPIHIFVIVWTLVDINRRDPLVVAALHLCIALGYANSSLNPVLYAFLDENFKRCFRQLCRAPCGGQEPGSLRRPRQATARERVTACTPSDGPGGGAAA
Protocol text: Rat brain delta opioid receptor binding
Run conditions: rDOR Ki
Response field label: string, one of satisfied (Ki strictly below 9 nM) or not satisfied.

Dear reviewer, please state whether CCN(CC)C(=O)c1ccc2c(c1)Oc1ccccc1C2=C1CC2CCC(C1)N2 (single isomer, unassigned) [Compound 52] has Ki strictly beneath 9 nM.
satisfied

* * *

Target desc: delta opioid receptor (Mus musculus)
Construct: host or cells: NG108-15 cells (membranes, purchased)
Sequence (P32300 whole entry): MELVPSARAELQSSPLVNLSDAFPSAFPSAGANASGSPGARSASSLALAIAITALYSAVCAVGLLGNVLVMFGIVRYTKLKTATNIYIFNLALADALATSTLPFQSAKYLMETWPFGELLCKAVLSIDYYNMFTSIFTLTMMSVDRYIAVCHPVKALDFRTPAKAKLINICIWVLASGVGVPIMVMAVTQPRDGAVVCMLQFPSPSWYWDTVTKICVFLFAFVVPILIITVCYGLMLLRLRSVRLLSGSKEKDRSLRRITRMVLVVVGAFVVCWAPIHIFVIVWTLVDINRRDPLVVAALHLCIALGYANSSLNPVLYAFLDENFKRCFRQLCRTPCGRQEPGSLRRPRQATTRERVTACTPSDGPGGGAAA
Protocol text: [35S]GTPγS binding assay in NG108-15 cell membrane
Format: biochemical
Run conditions: DOR GTPγS EC50, delta opioid receptor GTPγS functional assay
Readout: EC50 (nM)
Reply numerically in nM, unit not repeated.

Worked cases, answers included:
- Compound: "CCN(CC)C(=O)c1ccc2c(c1)Sc1ccccc1C2=C1CC2CCC(C1)N2 (single isomer, unassigned) [Compound 62]"
  Target desc: "delta opioid receptor (Mus musculus)"
  Result value: 8.35
- Compound: "CCN(CC)C(=O)c1ccc2c(c1)Oc1c(cccc1-c1cccnc1)C2=C1CC2CCC(C1)N2"
  Target desc: "delta opioid receptor (Mus musculus)"
  Result value: 19.3
- Compound: "CCN(CC)C(=O)c1ccc2c(c1)Oc1c(cccc1-c1ccoc1)C2=C1CC2CCC(C1)N2"
  Target desc: "delta opioid receptor (Mus musculus)"
  Result value: 13.3

// EC50 lookup, compound = CCN(CC)C(=O)c1ccc2c(c1)Sc1ccccc1C2=C1CC2CCC(C1)N2 (single isomer, unassigned) [Compound 61] , result: 188

src = patent US7982042B2
